Reported pKd values are given for each entry in this list.
# Study system: HIF-1α PAS-B domain (Homo sapiens)
# Construct: made in house
# Sequence (Q16665 238-349 limits assumed): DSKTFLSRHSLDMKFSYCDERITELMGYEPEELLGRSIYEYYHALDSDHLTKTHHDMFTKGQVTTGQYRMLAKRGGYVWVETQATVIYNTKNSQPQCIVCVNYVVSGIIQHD
# Measurement notes: MST binding to the PAS-B domain of HIF-1α
# Measurement conditions: MST; mean ± SEM, n = 2 (n = 1 for most C1 analogues, n = 3 in Figure S2); read-out: KD for HIF-1α PAS-B
Where a SMILES comes first, the peptide text is derived from it. [ ]: non-standard residue; d: D form. Phe(4-Br) = N[C@@H](Cc1ccc(Br)cc1)C(=O)O; Phe(4-I) = N[C@@H](Cc1ccc(I)cc1)C(=O)O; Aib = CC(C)(N)C(=O)O
Please report pKd as the negative decimal logarithm of the molar concentration, giving only the number.

Consider the worked cases shown below.
>>> value_reported("CC[C@H](C)[C@@H]1NC(=O)[C@H](CC(C)C)NC(=O)[C@H](CCCNC(=N)N)NC(=O)[C@H](CS)NC(=O)[C@H](Cc2ccc(I)cc2)NC(=O)[C@H]([C@@H](C)CC)NC1=O [cyclo-CRLII(4-iodo)F] (cyclo(CRLII[Phe(4-I)]))")
6.10
>>> value_reported("CC[C@H](C)[C@@H]1NC(=O)[C@H](CC(C)C)NC(=O)[C@H](CCCNC(=N)N)NC(=O)[C@H](CS)NC(=O)[C@H](Cc2ccccc2)NC(=O)[C@H](CC(C)C)NC1=O [L, cyclo-CRLILF] (cyclo(CRLILF))")
4.94
>>> value_reported("CC[C@H](C)[C@@H]1NC(=O)[C@H](CC(C)C)NC(=O)[C@H](CCCNC(=N)N)NC(=O)[C@H](CS)NC(=O)[C@H](Cc2ccccc2)NC(=O)C(C)(C)NC1=O [Aib, cyclo-CRLIAibF] (cyclo([Aib]FCRLI))")
4.65

Input line: Fill in reported pKd for this entry: CC[C@H](C)[C@@H]1NC(=O)[C@H](CC(C)C)NC(=O)[C@H](CCCNC(=N)N)NC(=O)[C@H](CS)NC(=O)[C@H](Cc2ccc(Br)cc2)NC(=O)[C@H]([C@@H](C)CC)NC1=O [Br, cyclo-CRLII(4-Br)F] (cyclo(CRLII[Phe(4-Br)]))
Output line: 6.00

----------
# Study system: HIF-1α PAS-B domain (Homo sapiens)
# Construct: made in house
# Measurement notes: MST binding to the PAS-B domain of HIF-1α
# Measurement conditions: MST; mean ± SEM, n = 2 (n = 1 for most C1 analogues, n = 3 in Figure S2); read-out: KD for HIF-1α PAS-B
Where a SMILES comes first, the peptide text is derived from it. [ ]: non-standard residue; d: D form. Phe(4-CF3) = N[C@@H](Cc1ccc(C(F)(F)F)cc1)C(=O)O; Phe(4-F) = N[C@@H](Cc1ccc(F)cc1)C(=O)O; Phe(4-I) = N[C@@H](Cc1ccc(I)cc1)C(=O)O
Measured metric: Kd (nM)
Quick note: give the figure in nM, leave out the unit.

>>> value_reported("CC[C@H](C)[C@H](NC(C)=O)C(=O)N[C@@H](Cc1ccc(I)cc1)C(=O)N[C@@H](CS)C(N)=O [Ac-I(4-iodo)FC-NH2] (Ac-Ile-[Phe(4-I)]-Cys-NH2)")
21500
>>> value_reported("CC[C@H](C)[C@@H]1NC(=O)[C@H](CC(C)C)NC(=O)[C@H](CCCNC(=N)N)NC(=O)[C@H](CS)NC(=O)[C@H](Cc2ccc(C(F)(F)F)cc2)NC(=O)[C@H]([C@@H](C)CC)NC1=O [CF3, cyclo-CRLII(4-CF3)F] (cyclo(CRLII[Phe(4-CF3)]))")
1100

Next item in the queue.
Input line: For HIF-1α PAS-B domain (Homo sapiens), give the measured Kd of the entry CC[C@H](C)[C@@H]1NC(=O)[C@H](CC(C)C)NC(=O)[C@H](CCCNC(=N)N)NC(=O)[C@H](CS)NC(=O)[C@H](Cc2ccc(F)cc2)NC(=O)[C@H]([C@@H](C)CC)NC1=O [F, cyclo-CRLII(4-F)F] (cyclo(CRLII[Phe(4-F)]))
Output line: 1700
